Exercise: state measured Ratio for each of the compounds provided.
target or test system: Protein-glutamine gamma-glutamyltransferase K (Homo sapiens) (UniProt P22735)
Sequence (P22735 whole entry): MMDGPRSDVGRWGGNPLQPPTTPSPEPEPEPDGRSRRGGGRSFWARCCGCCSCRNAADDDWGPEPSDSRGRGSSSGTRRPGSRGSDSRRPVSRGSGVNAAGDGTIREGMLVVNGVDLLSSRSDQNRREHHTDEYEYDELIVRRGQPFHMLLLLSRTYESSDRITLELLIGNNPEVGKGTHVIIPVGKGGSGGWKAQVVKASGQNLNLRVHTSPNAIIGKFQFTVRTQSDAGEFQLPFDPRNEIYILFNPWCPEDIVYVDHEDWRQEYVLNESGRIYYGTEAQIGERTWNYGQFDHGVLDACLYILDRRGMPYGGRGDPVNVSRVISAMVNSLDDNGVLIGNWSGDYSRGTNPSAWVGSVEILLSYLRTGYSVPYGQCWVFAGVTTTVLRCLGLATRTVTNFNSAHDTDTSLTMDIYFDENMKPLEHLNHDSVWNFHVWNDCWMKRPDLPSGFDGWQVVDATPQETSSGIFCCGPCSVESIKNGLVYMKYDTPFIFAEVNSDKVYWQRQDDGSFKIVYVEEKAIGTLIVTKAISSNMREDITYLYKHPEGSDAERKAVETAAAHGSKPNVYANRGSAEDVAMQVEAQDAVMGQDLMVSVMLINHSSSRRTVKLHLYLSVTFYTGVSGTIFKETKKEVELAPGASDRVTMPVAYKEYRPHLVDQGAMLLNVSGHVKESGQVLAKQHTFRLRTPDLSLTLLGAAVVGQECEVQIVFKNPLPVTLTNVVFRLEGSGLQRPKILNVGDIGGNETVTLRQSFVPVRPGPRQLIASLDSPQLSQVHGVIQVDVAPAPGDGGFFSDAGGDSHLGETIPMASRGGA
protocol details: Inhibition of human transglutaminase 1 using ((benzyloxy)carbonyl)-L-glutaminyl-L-serine peptide substrate assessed as Kinh/Ki ratio by GDH coupled assay
Answers are plain numbers.

Dear reader, for each entry below, please note its Ratio.
1. O=C(NC[C@@H]1CC(Br)=NO1)[C@@H]1CCN(C(=O)OCc2cnc3ccccc3c2)C1
2. O=C(NC[C@@H]1CC(Br)=NO1)[C@@H]1CCN1C(=O)OCc1cnc2ccccc2c1
3. O=C(NC[C@@H]1CC(Br)=NO1)[C@@H]1C[C@@H](c2ccccc2)CN1C(=O)OCc1cnc2ccccc2c1
4. C[C@H](OC(=O)N1CCC[C@@H]1C(=O)NC[C@@H]1CC(Br)=NO1)c1cnc2ccccc2c1
5. O=C(NC[C@@H]1CC(Br)=NO1)[C@@H]1CCCN1C(=O)OCc1cccc(OCc2ccccc2)c1

Reply:
25.8
13.6
66.3
8.7
3.9
